Catalogue of log10 IC50 readings, one per entry.
- MEASUREMENT_TARGET: SGLT2 (Homo sapiens)
- Construct: host or cells: TSA201 (Human Embryonal Kidney) cells, lentiviral transduction, puromycin selection
- Sequence (P31639 1-672): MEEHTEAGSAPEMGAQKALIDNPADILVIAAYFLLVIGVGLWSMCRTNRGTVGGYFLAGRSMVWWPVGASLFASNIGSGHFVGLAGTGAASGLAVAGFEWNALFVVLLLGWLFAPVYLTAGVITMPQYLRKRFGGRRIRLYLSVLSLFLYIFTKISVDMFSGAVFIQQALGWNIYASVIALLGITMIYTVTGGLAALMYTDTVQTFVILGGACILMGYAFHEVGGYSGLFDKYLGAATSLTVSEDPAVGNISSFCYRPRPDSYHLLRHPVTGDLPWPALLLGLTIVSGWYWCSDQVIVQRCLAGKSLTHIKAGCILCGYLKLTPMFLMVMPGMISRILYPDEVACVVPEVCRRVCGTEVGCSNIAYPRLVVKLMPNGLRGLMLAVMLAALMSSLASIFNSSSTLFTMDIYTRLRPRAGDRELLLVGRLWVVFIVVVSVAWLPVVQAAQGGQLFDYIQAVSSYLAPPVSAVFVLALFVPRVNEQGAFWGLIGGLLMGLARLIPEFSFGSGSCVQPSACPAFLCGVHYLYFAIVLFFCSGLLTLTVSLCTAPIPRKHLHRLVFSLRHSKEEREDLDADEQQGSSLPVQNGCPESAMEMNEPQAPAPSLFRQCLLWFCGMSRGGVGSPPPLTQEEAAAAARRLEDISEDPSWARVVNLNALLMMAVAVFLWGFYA
- TEST_NAME: SGLT2 inhibition, 2-NBDG glucose uptake in SGLT2-overexpressing TSA201 cells
- Type: cell-based
Answers are given as log10 of IC50 in µM.

Q: // query log10 IC50 value for entry OC[C@H]1O[C@@H](n2cc(Cc3ccccc3)nn2)[C@H](O)[C@@H](O)[C@@H]1O [compound 20]
Ans: 1.37

Q: Similarly, OC[C@H]1O[C@@H](c2noc(Cc3ccccc3)n2)[C@H](O)[C@@H](O)[C@@H]1O [10a] ?
Ans: 0.57

Q: Similarly, OC[C@H]1O[C@@H](c2nc(Cc3ccccc3)n[nH]2)[C@H](O)[C@@H](O)[C@@H]1O [19a] ?
Ans: 1.86

Q: Similarly, COc1ccc(Cc2ccnc([C@@H]3O[C@H](CO)[C@@H](O)[C@H](O)[C@H]3O)n2)cc1 [16b] ?
Ans: 1.06

Q: Similarly, OC[C@H]1O[C@@H](c2nccc(Cc3ccccc3)n2)[C@H](O)[C@@H](O)[C@@H]1O [16a] ?
Ans: 1.23

Q: Similarly, OC[C@H]1O[C@@H](c2nnc(Cc3ccccc3)o2)[C@H](O)[C@@H](O)[C@@H]1O [13a] ?
Ans: 0.34

Q: Similarly, OC[C@H]1O[C@@H](c2nc(Cc3ccccc3)c[nH]2)[C@H](O)[C@@H](O)[C@@H]1O [compound 18] ?
Ans: 0.55

Q: Similarly, OC[C@H]1O[C@@H](c2nc(Cc3ccccc3)n(-c3ccccc3)n2)[C@H](O)[C@@H](O)[C@@H]1O [19c] ?
Ans: 0.39

---

- MEASUREMENT_TARGET: SGLT1 (Homo sapiens)
- Construct: host or cells: TSA201 (Human Embryonal Kidney) cells, lentiviral transduction, puromycin selection
- Sequence (P13866 1-664): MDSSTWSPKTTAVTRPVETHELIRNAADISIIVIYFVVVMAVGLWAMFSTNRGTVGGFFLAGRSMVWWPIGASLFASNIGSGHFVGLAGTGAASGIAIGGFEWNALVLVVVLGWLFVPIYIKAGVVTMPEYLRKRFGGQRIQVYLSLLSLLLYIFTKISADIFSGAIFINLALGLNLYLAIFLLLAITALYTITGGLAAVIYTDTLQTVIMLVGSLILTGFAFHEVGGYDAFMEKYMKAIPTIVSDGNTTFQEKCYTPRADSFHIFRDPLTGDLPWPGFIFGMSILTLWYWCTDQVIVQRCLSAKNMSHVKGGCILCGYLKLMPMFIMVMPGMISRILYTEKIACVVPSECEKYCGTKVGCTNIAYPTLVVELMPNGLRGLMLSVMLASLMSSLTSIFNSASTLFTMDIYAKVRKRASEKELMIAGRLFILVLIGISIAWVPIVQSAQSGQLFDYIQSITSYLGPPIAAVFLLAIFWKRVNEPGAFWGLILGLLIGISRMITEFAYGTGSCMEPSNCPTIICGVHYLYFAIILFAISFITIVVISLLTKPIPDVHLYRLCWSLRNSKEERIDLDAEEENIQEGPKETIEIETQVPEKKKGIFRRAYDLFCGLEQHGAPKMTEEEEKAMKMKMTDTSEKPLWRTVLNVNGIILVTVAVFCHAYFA
- TEST_NAME: SGLT1 inhibition, 2-NBDG glucose uptake in SGLT1-overexpressing TSA201 cells
- Type: cell-based
- CONDITION_NOTES: Table 3; TSA-201 cells; NI: no inhibition at 1000 µM
# 1 = IC50 below 100 µM (exclusive); -1 = IC50 at/above 100 µM

Examples from the recorded data:
- MOLECULE: "OC[C@H]1O[C@@H](c2nc(-c3ccc4ccccc4c3)c[nH]2)[C@H](O)[C@@H](O)[C@@H]1O [24b]"
  MEASUREMENT_TARGET: "SGLT1 (Homo sapiens)"
  CAT: 1
- MOLECULE: "OC[C@H]1O[C@@H](n2cc(-c3ccccc3)nn2)[C@H](O)[C@@H](O)[C@@H]1O [21a]"
  MEASUREMENT_TARGET: "SGLT1 (Homo sapiens)"
  CAT: -1
- MOLECULE: "OC[C@H]1O[C@@H](c2nc(-c3ccccc3)cs2)[C@H](O)[C@@H](O)[C@@H]1O [23a]"
  MEASUREMENT_TARGET: "SGLT1 (Homo sapiens)"
  CAT: -1
- MOLECULE: "OC[C@H]1O[C@@H](c2cn(-c3ccccc3)nn2)[C@H](O)[C@@H](O)[C@@H]1O [22a]"
  MEASUREMENT_TARGET: "SGLT1 (Homo sapiens)"
  CAT: -1
- MOLECULE: "OC[C@H]1O[C@@H](c2nc(-c3ccc4ccccc4c3)n[nH]2)[C@H](O)[C@@H](O)[C@@H]1O [25b]"
  MEASUREMENT_TARGET: "SGLT1 (Homo sapiens)"
  CAT: 1
- MOLECULE: "OC[C@H]1O[C@@H](c2nc(-c3ccccc3)c[nH]2)[C@H](O)[C@@H](O)[C@@H]1O [24a]"
  MEASUREMENT_TARGET: "SGLT1 (Homo sapiens)"
  CAT: -1
- MOLECULE: "OC[C@H]1O[C@@H](c2cn(-c3ccc4ccccc4c3)nn2)[C@H](O)[C@@H](O)[C@@H]1O [22b]"
  MEASUREMENT_TARGET: "SGLT1 (Homo sapiens)"
  CAT: 1
- MOLECULE: "OC[C@H]1O[C@@H](n2cc(-c3ccc4ccccc4c3)nn2)[C@H](O)[C@@H](O)[C@@H]1O [21b]"
  MEASUREMENT_TARGET: "SGLT1 (Homo sapiens)"
  CAT: -1
- MOLECULE: "OC[C@H]1O[C@@H](c2nnc(-c3ccccc3)[nH]2)[C@H](O)[C@@H](O)[C@@H]1O [25a]"
  MEASUREMENT_TARGET: "SGLT1 (Homo sapiens)"
  CAT: -1

Attention now turns to another entry.
Q: # check: IC50 < 100 µM for OC[C@H]1O[C@@H](c2nc(-c3ccc4ccccc4c3)cs2)[C@H](O)[C@@H](O)[C@@H]1O [23b]
Ans: -1

Sourced from paper PMC8071193
